Items are presented alongside their recorded Ki.
- Test target: Coagulation factor XI (Homo sapiens, UniProt P03951)
- Sequence (P03951 19-387 limits assumed): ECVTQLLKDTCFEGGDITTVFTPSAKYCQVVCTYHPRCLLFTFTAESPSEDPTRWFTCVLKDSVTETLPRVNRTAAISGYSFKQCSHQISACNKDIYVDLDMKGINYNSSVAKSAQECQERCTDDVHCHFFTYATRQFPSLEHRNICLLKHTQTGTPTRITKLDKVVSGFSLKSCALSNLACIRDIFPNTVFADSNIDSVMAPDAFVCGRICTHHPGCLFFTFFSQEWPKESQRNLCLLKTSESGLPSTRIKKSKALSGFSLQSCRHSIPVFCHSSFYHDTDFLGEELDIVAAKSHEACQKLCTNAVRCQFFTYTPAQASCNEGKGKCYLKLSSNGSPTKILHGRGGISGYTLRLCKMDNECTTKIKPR
- Sequence (P03951 388-625 limits assumed): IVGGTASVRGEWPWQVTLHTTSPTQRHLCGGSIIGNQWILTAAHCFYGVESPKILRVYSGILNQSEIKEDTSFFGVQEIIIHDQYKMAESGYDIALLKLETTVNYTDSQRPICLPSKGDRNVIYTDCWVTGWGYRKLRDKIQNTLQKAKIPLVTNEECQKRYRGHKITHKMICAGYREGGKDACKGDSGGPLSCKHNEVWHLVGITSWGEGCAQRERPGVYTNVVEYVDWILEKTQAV
- Test: Factor XIa Assay: The effectiveness of a compound of the present invention as an inhibitor of Coagulation Factor XIa can be determined using a relevant purified serine protease, and an appropriate synthetic substrate. The rate of hydrolysis of the chromogenic or fluorogenic substrate by the relevant serine protease was measured both in the absence and presence of compounds of the present invention. Assays were conducted at rt or at 37° C. […] A decrease in the rate of fluorescence change in the presence of inhibitor is indicative of enzyme inhibition. Such methods are known to one skilled in the art. […] Times required to achieve equilibration between enzyme and inhibitor were determined in control experiments. Initial velocities of product formation in the absence (Vo) or presence of inhibitor (Vi) were measured. Assuming competitive inhibition, and that unity is negligible compared Km/[S], [I]/e, and [I]/e (where [S], [I], and e respectively represent the total concentrations, of substrate, inhibitor and enzyme), the equilibrium constant (Ki) for dissociation of the inhibitor from the enzyme can be obtained from the dependence of Vo/Vi on [I] shown in the following equation.
Provide only the numeric value, understood in nM.

Consider the reported Ki for these compounds:
Compound: COC(=O)Nc1ccc2c(c1)NC(=O)CCCCC(c1ccc(-c3cc(Cl)ccc3-n3cc(C(F)(F)F)cn3)cn1)c1cccc-2c1 (centres undefined)
Reading unit: nM
Ki: 708
--
Compound: COC(=O)Nc1ccc2c(c1)NC(=O)CCCCC(c1ccc(-c3c(-n4cc(C(F)(F)F)nn4)ccc(Cl)c3F)cn1)c1cccc-2c1 (centres undefined)
Reading unit: nM
Ki: 2.02
--
Compound: COC(=O)Nc1ccc2c(c1)NC(=O)CCCCC(c1ccc(-c3cc(Cl)ccc3-c3cnn(C(F)F)c3)cn1)c1cccc-2c1 (centres undefined)
Reading unit: nM
Ki: 640

// moving on: another record for Ki
Return reported Ki; argument: COC(=O)Nc1ccc2c(c1)NC(=O)CCCCC(c1ccc(-c3cc(Cl)ccc3-n3cc(C#N)cn3)cn1)c1cccc-2c1 (centres undefined)
211
